Assignment: determine reported % apoptosis at LD50 for the given substances.
- Tested on: U373 cells
- procedure-details: Annexin-V and propidium iodide apoptosis by flow cytometry
- Format: cell-based, human
- stated-conditions: score 1/0

substance | reported
Ac-EPAPESPQV-NH2 [PGA-4] | 1 (<25)

Report % apoptosis at LD50 for every entry below.
1. Ac-APKPYQPRG-NH2 [PGA-1]
2. Ac-EPAPLAPYG-NH2 [PGA-2]
3. Ac-EPAPEQPDG-NH2 [PGA-5]
4. Ac-EPAPYQPEG-NH2 [PGA-3]

1. 0 (>25)
2. 1 (<25)
3. 0 (>25)
4. 1 (<25)

====

- procedure-details: LD50 predicted from in-vitro IC50 by regression (Speilmann method)
- stated-conditions: score 1/0
value-type: LD50 (mM)

These recorded examples may help you get a feel for the data.
substance | LD50 (mM)
Ac-APKPYQPRG-NH2 [PGA-1] | 0 (<100)
Ac-EPAPESPQV-NH2 [PGA-4] | 1 (>100)
Ac-EPAPYQPEG-NH2 [PGA-3] | 1 (>100)

Go through the items and report each one's LD50 (mM).
1. Ac-EPAPLAPYG-NH2 [PGA-2]
2. Ac-EPAPEQPDG-NH2 [PGA-5]

["1 (>100)", "1 (>100)"]

====

- Tested on: primary human fetal brain cells (HFB)
- procedure-details: CTG viability of primary human fetal brain cultures with or without Aβ1-42
- Format: cell-based
- stated-conditions: PGA at IC50 concentration
value-type: tolerance of HFB cultures (ΔRLU, CTG)

Worked cases, answers included:
substance | tolerance of HFB cultures (ΔRLU, CTG)
Ac-EPAPYQPEG-NH2 [PGA-3] | well tolerated
Ac-EPAPESPQV-NH2 [PGA-4] | well tolerated
Ac-APKPYQPRG-NH2 [PGA-1] | significant toxicity
Ac-EPAPLAPYG-NH2 [PGA-2] | well tolerated

Would you kindly look at the next entry?
Which tolerance of HFB cultures (ΔRLU, CTG) is reported for this substance? Ac-EPAPEQPDG-NH2 [PGA-5]
significant toxicity

====

Would you kindly list Kd for each of these substances?
- assayed-system: Recombinant human p65 protein (r-p65) (Homo sapiens, UniProt Q04206)
- Construct: purchased Ori-Gene Technologies Inc., Rockville, Md; TP320780
- Sequence (Q04206 whole entry): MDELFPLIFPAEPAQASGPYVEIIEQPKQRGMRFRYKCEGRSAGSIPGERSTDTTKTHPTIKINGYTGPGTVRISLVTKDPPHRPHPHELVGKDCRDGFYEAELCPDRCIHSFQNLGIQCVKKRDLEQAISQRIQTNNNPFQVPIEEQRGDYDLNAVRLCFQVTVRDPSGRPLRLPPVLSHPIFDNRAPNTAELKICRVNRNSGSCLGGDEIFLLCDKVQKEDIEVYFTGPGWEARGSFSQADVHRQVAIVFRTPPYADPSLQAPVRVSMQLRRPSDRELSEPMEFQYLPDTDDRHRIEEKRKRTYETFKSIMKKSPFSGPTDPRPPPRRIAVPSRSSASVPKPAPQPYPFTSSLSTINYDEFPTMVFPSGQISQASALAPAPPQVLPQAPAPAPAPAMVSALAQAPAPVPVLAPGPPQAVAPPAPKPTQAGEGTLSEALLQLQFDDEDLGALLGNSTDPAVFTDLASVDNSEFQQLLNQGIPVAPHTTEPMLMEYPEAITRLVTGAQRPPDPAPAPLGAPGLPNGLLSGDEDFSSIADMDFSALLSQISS
- procedure-details: Plate binding ELISA of GA/PGA with r-p65 (KD by method of Friguet)
- stated-conditions: KD (uM), score 1/0

substance | reported
Ac-EPAPESPQV-NH2 [PGA-4] | > 3 µM
Ac-EPAPYQPEG-NH2 [PGA-3] | > 3 µM
Ac-APKPYQPRG-NH2 [PGA-1] | > 3 µM
Ac-EPAPEQPDG-NH2 [PGA-5] | > 3 µM

I am curious: what Kd value has been reported for Ac-EPAPLAPYG-NH2 [PGA-2] ?
< 3 µM

====

- procedure-details: LD50 predicted from in-vitro IC50 by regression (Speilmann method)
- stated-conditions: Log (LD50)=0.506×(log IC50)+0.475, body weight
- Procedure: Lactate dehydrogenase (LDH) assay: To detect direct GA-induced cell lysis we performed LDH release assays (Roche Molecular Diagnostics). […] Approximately 5×10^4 U373 cells/well were cultured in 96-well plates in the presence of increasing concentrations of individual GA or control peptide from 0.5 μM to 500 μM. […] Specific LDH-release was calculated according to the following formula: LDH-release %=100*(GA or control peptide treated cells—untreated cells)/(positive control-untreated cells). […]
value-type: LD50 estimated from IC50
Answer with the value and then the unit.

substance | LD50 estimated from IC50
Ac-EPAPYQPEG-NH2 [CP-1] | 272.78 mg/kg
Ac-EPAPEQPDG-NH2 [CP-2] | 237.52 mg/kg
Ac-EPAPLAPYG-NH2 [PGA-2] | 1396.83 mg/kg

Dear colleague, could you please provide LD50 estimated from IC50 for the substances listed below?
1. Ac-EPAPLAPYG-NH2 [GA-1]
2. Ac-EPAPESPQV-NH2 [PGA-4]
3. Ac-EPAPESPQV-NH2 [GA-2]

1. 380.44 mg/kg
2. 1693.87 mg/kg
3. 369.42 mg/kg

Could you tell me which LD50 estimated from IC50 is on file for Ac-APKPYQPRG-NH2 [CP-3] ?
237.62 mg/kg
